test: Single-ascending-dose phase 1 study: plasma and urine pharmacokinetics; type: in vivo, humans; settings: human, plasma, iv, 400 mg, single 400 mg IV infusion over 1 h, plasma, arithmetic mean; read-out: Vz (apparent volume of distribution during terminal phase)
Numbered stars: 1 amine (or outer) side, 2 acyl side, 3 side chain; on linkers, the order of the positions; unused ones are H or OH. Bridge positions count the residues as written; N and C are the ends. Square brackets hold non-standard residues; d marks the D form. Peptide text beside a SMILES is read from it. * marks the point of attachment. Orn(4R-OH,5R-OCH2CH2NMe3+) = C[N+](C)(C)CCO[C@@H](N[*:3])[C@H](O)C[C@H](N[*:1])C(=O)[*:2]; pTerphenylCO(4''-OnC5H11) = CCCCCOc1ccc(-c2ccc(-c3ccc(C(=O)*)cc3)cc2)cc1; hTyr(3S-OH,4S-OH) = N[C@H](C(=O)O)[C@H](O)[C@@H](O)c1ccc(O)cc1; Pro(3S-OH,4S-Me) = C[C@H]1CN[C@H](C(=O)O)[C@H]1O; Hyp = O=C(O)[C@@H]1C[C@@H](O)CN1
Property name: Vd (L)
Answer in L, number only, no unit symbol.

Supply recorded Vd for CCCCCOc1ccc(-c2ccc(-c3ccc(C(=O)N[C@H]4C[C@@H](O)[C@@H](OCC[N+](C)(C)C)NC(=O)[C@@H]5[C@@H](O)[C@@H](C)CN5C(=O)[C@H]([C@@H](C)O)NC(=O)[C@H]([C@H](O)[C@@H](O)c5ccc(O)cc5)NC(=O)[C@@H]5C[C@@H](O)CN5C(=O)[C@H]([C@@H](C)O)NC4=O)cc3)cc2)cc1 [CD101] ({pTerphenylCO(4''-OnC5H11)}-[Orn(4R-OH,5R-OCH2CH2NMe3+)]T[Hyp][hTyr(3S-OH,4S-OH)]T[Pro(3S-OH,4S-Me)]; lactam 1-C) here.
41.6

###

assay: Single-ascending-dose phase 1 study: plasma and urine pharmacokinetics; type: in vivo, humans; conditions: human; single 100 mg IV infusion over 1 h, plasma, LC-MS/MS, arithmetic mean; read-out: Cmax
Numbered stars: 1 amine (or outer) side, 2 acyl side, 3 side chain; on linkers, the order of the positions; unused ones are H or OH. Bridge positions count the residues as written; N and C are the ends. Square brackets hold non-standard residues; d marks the D form. Peptide text beside a SMILES is read from it. * marks the point of attachment. Orn(4R-OH,5R-OCH2CH2NMe3+) = C[N+](C)(C)CCO[C@@H](N[*:3])[C@H](O)C[C@H](N[*:1])C(=O)[*:2]; pTerphenylCO(4''-OnC5H11) = CCCCCOc1ccc(-c2ccc(-c3ccc(C(=O)*)cc3)cc2)cc1; hTyr(3S-OH,4S-OH) = N[C@H](C(=O)O)[C@H](O)[C@@H](O)c1ccc(O)cc1; Pro(3S-OH,4S-Me) = C[C@H]1CN[C@H](C(=O)O)[C@H]1O; Hyp = O=C(O)[C@@H]1C[C@@H](O)CN1
Property name: Cmax (ng/mL)
Answer in ng/mL, number only, no unit symbol.

Supply recorded Cmax for CCCCCOc1ccc(-c2ccc(-c3ccc(C(=O)N[C@H]4C[C@@H](O)[C@@H](OCC[N+](C)(C)C)NC(=O)[C@@H]5[C@@H](O)[C@@H](C)CN5C(=O)[C@H]([C@@H](C)O)NC(=O)[C@H]([C@H](O)[C@@H](O)c5ccc(O)cc5)NC(=O)[C@@H]5C[C@@H](O)CN5C(=O)[C@H]([C@@H](C)O)NC4=O)cc3)cc2)cc1 [CD101] ({pTerphenylCO(4''-OnC5H11)}-[Orn(4R-OH,5R-OCH2CH2NMe3+)]T[Hyp][hTyr(3S-OH,4S-OH)]T[Pro(3S-OH,4S-Me)]; lactam 1-C) here.
4860
